For each of the binders below, state its kon.
Target: T1, recombinant rat sclerostin (rat, UniProt Q99P67 24-213, limits assumed)
T1 sequence (looked up): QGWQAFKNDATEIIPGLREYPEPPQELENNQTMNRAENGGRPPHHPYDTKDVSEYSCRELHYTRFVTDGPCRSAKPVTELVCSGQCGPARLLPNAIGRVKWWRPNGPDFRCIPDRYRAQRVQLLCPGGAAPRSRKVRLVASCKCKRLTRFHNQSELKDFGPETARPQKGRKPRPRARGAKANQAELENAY
Assay: SPR
Just the number in M⁻¹ s⁻¹, nothing appended.

// query What does the data say about its kon? Entry: AE10-6-AM8 (antibody, V domains shown, converted into IgG) VH: EVQLVQSGAEVKKPGASVKVSCKVSGYTLSELSIHWVRQAPGKGLEWMGGFDPEDGETIYAQKFQGRVTMTEDTSTDTAYMELSSLRSEDTAVYYCATDSAGYWYKFFQHWGQGTLVTVSS VL: QAVVTQEPSLTVSPGGTVTLTCGSSTGAVTIDHYPYWFQQKPGQAPRTLISDTDDKHSWTPARFSGSLLGGKAALTLSGAQPEDEAEYYCLLDYGGSFVFGGGTKLTVL
// result 1.8e+06

// query Repeat with AE10-6-AM3 (antibody, V domains shown, converted into IgG) VH: EVQLVQSGAEVKKPGASVKVSCKVSGYTLTELSMHWVRQAPGKGLEWMGGFDPEDGETIYAQKFQGRVTMTEDTSTDTAYMELSSLRSEDTAVYYCATDSAGYWYKFFQHWGQGTLVTVSS VL: QAVVTQEPSLTVSPGGTVTLTCGSSTGAVTIDHYPYWFQQKPGQAPRTLISDTDDKHSWTPARFSGSLLGGKAALTLSGAQPEDEAEYYCLLDYGGTFVFGGGTKLTVL
// result 1.9e+06

// query Repeat with AE10-6-AM5 (antibody, V domains shown, converted into IgG) VH: EVQLVQSGAEVKKPGASVKVSCKVSGYTLSELSMHWVRQAPGKGLEWMGGFDPEGGETIYAQKFQGRVTMTEDTSTDTAYMELSSLRSEDTAVYYCATDAGGYWYKFFQHWGQGTLVTVSS VL: QAVVTQEPSLTVSPGGTVTLTCGSSTGTVTIDHYPYWFQQKPGQAPRTLISDTDDKHSWTPARFSGSLLGGKAALTLSGAQPEDEAEYYCLLFYGGTVVFGGGTKLTVL
// result 1.3e+06

// query Repeat with AE10-6-AM2 (antibody, V domains shown, converted into IgG; also called rHC + LC S4 clone 102) VH: EVQLVQSGAEVKKPGASVKVSCKVSGYTLTELSMHWVRQAPGKGLEWMGGFDPEAGETIYAQKFQGRVTMTEDTSTDTAYMELSSLRSEDTAVYYCATDGELYWYKFFQHWGQGTLVTVSS VL: QAVVTQEPSLTVSPGGTVTLTCGSSTGAVTIWHYPYWFQQKPGQAPRTLISDTNDKHSWTPARFSGSLLGGKAALTLSGAQPEDEAEYYCLLDYGGSFVFGGGTKLTVL
// result 7.6e+06

// query Repeat with AE10-6-AM7 (antibody, V domains shown, converted into IgG; also called rHC + LC S4 clone 131) VH: EVQLVQSGAEVKKPGASVKVSCKVSGYTLTELSMHWVRQAPGKGLEWMGGFDPEDGETIYAQKFQGRVTMTEDTSTDTAYMELSSLRSEDTAVYYCATDTVGYWEKFFQHWGQGTLVTVSS VL: QAVVTQEPSLTVSPGGTVTLTCGSSTGTVTIDHYPYWFQQKPGQAPRTLISDTDDKHSWTPARFSGSLLGGKAALTLSGAQPEDEAEYYCLLDYGGRFVFGGGTKLTVL
// result 1.8e+06

// query Repeat with AE10-6-AM6 (antibody, V domains shown, converted into IgG; also called rHC + LC S4 clone 119) VH: EVQLVQSGAEVKKPGASVKVSCKVSGYTLSELSMHWVRQAPGKGLEWMGGFDPEGGETIYAQKFQGRVTMTEDTSTDTAYMELSSLRSEDTAVYYCATDTEGYWEKFFQHWGQGTLVTVSS VL: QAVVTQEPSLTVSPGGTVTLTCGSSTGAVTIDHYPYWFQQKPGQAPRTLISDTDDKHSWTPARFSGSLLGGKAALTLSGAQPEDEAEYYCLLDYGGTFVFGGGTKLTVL
// result 1.9e+06
